Where these numbers come from: paper PMC10039853

// values below are reported pKd
- TESTED ON: T1, hen egg lysozyme (Gallus gallus (hen egg white), UniProt P00698)
- T1 construct: hen egg lysozyme (HEL), the antigen of D3-L11; also in PDB 6JB8; The supplier is named for the ELISA only; also called HEL; antigen lysozyme; source: bought: Sigma-Aldrich, Cat No. L6876
- T1 sequence (P00698 19-147): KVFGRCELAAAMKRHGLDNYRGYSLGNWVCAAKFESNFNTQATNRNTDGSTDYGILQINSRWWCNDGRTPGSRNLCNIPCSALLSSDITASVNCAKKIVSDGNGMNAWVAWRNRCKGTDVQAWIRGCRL
- TEST SUMMARY: SPR; Biacore T200; lysozyme immobilised on Sensor Chip CM5 by amine coupling (200 RU); VHH injected 300 s, dissociation 600 s in PBST (PBS, 0.005% Tween 20); 1:1 binding model; duplicate
- PROTOCOL CONDITIONS: both partners purified
Scale note: pKd = -log10(concentration in M).

Solved cases (3 shown):
BINDER	pKd
D3-L11 A79R (VHH, as the VHH chain of Sm1 (D3-L11 wild type, PDB 6JB8) with A79R; SAG tripeptide linker before the C-terminal 6xHis tag; source: ExpiCHO, transient transfection, purified from supernatant (His Mag Sepharose excel); not shown: His6, C-terminal, kept) VHH: DVQLVESGGGSVQAGGSLRLSCAASGSTDSIEYMTWFRQAPGKAREGVAALYTHTGNTYYTDSVKGRFTISQDKAKNMRYLRMDSVKSEDTAIYTCGATRKYVPVRFALDQSSYDYWGQGTQVTVSS	10.59
D3-L11 G26I (VHH, as the VHH chain of Sm1 (D3-L11 wild type, PDB 6JB8) with G26I; SAG tripeptide linker before the C-terminal 6xHis tag; source: ExpiCHO, transient transfection, purified from supernatant (His Mag Sepharose excel); not shown: His6, C-terminal, kept) VHH: DVQLVESGGGSVQAGGSLRLSCAASISTDSIEYMTWFRQAPGKAREGVAALYTHTGNTYYTDSVKGRFTISQDKAKNMAYLRMDSVKSEDTAIYTCGATRKYVPVRFALDQSSYDYWGQGTQVTVSS	10.60
D3-L11 A79S (VHH, as the VHH chain of Sm1 (D3-L11 wild type, PDB 6JB8) with A79S; SAG tripeptide linker before the C-terminal 6xHis tag; source: ExpiCHO, transient transfection, purified from supernatant (His Mag Sepharose excel); not shown: His6, C-terminal, kept) VHH: DVQLVESGGGSVQAGGSLRLSCAASGSTDSIEYMTWFRQAPGKAREGVAALYTHTGNTYYTDSVKGRFTISQDKAKNMSYLRMDSVKSEDTAIYTCGATRKYVPVRFALDQSSYDYWGQGTQVTVSS	10.93

Please look at the following binder next.
Find the recorded pKd belonging to D3-L11 A79F (VHH, as the VHH chain of Sm1 (D3-L11 wild type, PDB 6JB8) with A79F; SAG tripeptide linker before the C-terminal 6xHis tag; source: ExpiCHO, transient transfection, purified from supernatant (His Mag Sepharose excel); not shown: His6, C-terminal, kept) VHH: DVQLVESGGGSVQAGGSLRLSCAASGSTDSIEYMTWFRQAPGKAREGVAALYTHTGNTYYTDSVKGRFTISQDKAKNMFYLRMDSVKSEDTAIYTCGATRKYVPVRFALDQSSYDYWGQGTQVTVSS and report it. 10.92
